test: Determination of Vx-770 solubility profile (incremental solvent addition; saturated saline, 1-octanol extraction, spectrophotometry at 311 nm); assay type: physicochemical; conditions: inferred from solubility at pH 7.4 vs 7.1; read-out: strongest acidic pKa
observable: pKa

Exercise: Give me measured pKa, please, for this compound: CC(C)(C)c1cc(C(C)(C)C)c(NC(=O)c2c[nH]c3ccccc3c2=O)cc1O
Key: > 7.4

====

assay: Determination of Vx-770 solubility profile (incremental solvent addition; saturated saline, 1-octanol extraction, spectrophotometry at 311 nm); type: physicochemical; conditions: aqueous saline (standard bath solution), pH 7.4, 25°C, pH = 7.4, aqueous saline; read-out: aqueous solubility Saq
observable: solubility at 24 h (µM)
Express the result in µM but write the number alone.

Exercise: Give me measured solubility at 24 h, please, for this compound: CC(C)(C)c1cc(C(C)(C)C)c(NC(=O)c2c[nH]c3ccccc3c2=O)cc1O [Vx-770, ivacaftor]
Key: 0.05

====

test: Determination of Vx-770 solubility profile (incremental solvent addition; saturated saline, 1-octanol extraction, spectrophotometry at 311 nm); format: physicochemical; conditions: aqueous saline (standard bath solution), pH 7.1, 25°C, over pH 7.1 and 7.4; read-out: aqueous solubility estimate
observable: solubility at 24 h

Exercise: Give me measured solubility at 24 h, please, for this molecule: CC(C)(C)c1cc(C(C)(C)C)c(NC(=O)c2c[nH]c3ccccc3c2=O)cc1O [Vx-770, ivacaftor]
Key: 0.05 to 0.062 µM

====

test: Determination of Vx-770 solubility profile (incremental solvent addition; saturated saline, 1-octanol extraction, spectrophotometry at 311 nm); type: physicochemical; settings: ethanol, 25 °C, organic solvent or mixture, thermodynamic from solid, ethanol; 25°C; read-out: S (solubility)
observable: solubility (mM)
Express the result in mM but write the number alone.

Exercise: Give me measured solubility, please, for this compound: CC(C)(C)c1cc(C(C)(C)C)c(NC(=O)c2c[nH]c3ccccc3c2=O)cc1O
Key: 3.1

====

experiment: Determination of Vx-770 solubility profile (incremental solvent addition; saturated saline, 1-octanol extraction, spectrophotometry at 311 nm); type: physicochemical; details: pentane, 25 °C, organic solvent or mixture, thermodynamic from solid, pentane; 25°C; read-out: S (solubility)
observable: solubility
Remember to put the unit after the number in your answer.

Exercise: Give me measured solubility, please, for this compound: CC(C)(C)c1cc(C(C)(C)C)c(NC(=O)c2c[nH]c3ccccc3c2=O)cc1O
Key: 18 µM

====

test: Determination of Vx-770 solubility profile (incremental solvent addition; saturated saline, 1-octanol extraction, spectrophotometry at 311 nm); assay type: physicochemical; details: octane; 25°C; read-out: S (solubility)
observable: solubility

Exercise: Give me measured solubility, please, for this molecule: CC(C)(C)c1cc(C(C)(C)C)c(NC(=O)c2c[nH]c3ccccc3c2=O)cc1O
Key: ~2600 µM

====

molecular target: WT CFTR (Homo sapiens); construct: expressed in transfected cells; host or cells: Xenopus laevis oocytes injected with cRNA transcribed from pGEMHE-CFTR; assay: Ensemble fitting of gating models (Schemes 3 and 4) to on-off current time courses; assay type: biochemical; settings: Scheme 4, average of three fits; calculated from fit parameters; read-out: K0.5;aq
Sequence (P13569 whole entry): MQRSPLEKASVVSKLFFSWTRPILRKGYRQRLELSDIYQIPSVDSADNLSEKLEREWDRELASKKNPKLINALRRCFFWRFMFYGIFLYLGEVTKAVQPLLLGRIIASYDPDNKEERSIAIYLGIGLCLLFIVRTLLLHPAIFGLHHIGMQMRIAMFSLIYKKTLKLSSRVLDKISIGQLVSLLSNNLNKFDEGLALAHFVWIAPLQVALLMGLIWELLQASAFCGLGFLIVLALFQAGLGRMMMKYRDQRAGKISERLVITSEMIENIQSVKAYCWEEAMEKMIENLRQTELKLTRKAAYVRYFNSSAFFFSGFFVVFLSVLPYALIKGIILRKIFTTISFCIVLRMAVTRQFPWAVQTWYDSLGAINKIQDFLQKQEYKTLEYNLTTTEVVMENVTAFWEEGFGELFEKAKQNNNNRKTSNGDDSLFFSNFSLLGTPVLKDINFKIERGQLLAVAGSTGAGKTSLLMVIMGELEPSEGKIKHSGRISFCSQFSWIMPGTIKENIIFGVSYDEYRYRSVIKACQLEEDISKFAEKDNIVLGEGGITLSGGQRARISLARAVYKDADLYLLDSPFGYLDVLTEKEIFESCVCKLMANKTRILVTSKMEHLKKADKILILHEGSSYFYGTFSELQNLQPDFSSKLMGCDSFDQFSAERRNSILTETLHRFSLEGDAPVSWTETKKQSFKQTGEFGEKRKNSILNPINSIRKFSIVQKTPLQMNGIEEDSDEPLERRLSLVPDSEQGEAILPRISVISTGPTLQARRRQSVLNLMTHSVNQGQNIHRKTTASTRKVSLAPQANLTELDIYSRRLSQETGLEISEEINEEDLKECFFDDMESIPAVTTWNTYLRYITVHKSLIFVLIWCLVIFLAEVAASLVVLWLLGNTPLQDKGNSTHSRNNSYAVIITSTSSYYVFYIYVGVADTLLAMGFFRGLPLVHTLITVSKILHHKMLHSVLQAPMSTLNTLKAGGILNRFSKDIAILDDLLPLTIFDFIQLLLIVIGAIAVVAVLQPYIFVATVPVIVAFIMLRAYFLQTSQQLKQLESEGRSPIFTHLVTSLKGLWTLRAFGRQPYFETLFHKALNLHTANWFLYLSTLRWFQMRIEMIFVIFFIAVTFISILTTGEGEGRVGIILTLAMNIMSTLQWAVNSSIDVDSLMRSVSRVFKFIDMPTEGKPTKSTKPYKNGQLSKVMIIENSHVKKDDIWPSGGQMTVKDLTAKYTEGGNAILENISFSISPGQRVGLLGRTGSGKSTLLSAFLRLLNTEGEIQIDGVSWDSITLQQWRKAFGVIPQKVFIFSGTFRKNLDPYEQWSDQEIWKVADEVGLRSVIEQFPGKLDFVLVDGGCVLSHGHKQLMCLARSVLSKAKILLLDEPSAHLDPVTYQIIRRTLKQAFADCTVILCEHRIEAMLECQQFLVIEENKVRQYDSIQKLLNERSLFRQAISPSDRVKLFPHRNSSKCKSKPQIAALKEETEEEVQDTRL
observable: EC50 (pM)
Express the result in pM but write the number alone.

Exercise: Give me measured EC50, please, for this compound: CC(C)(C)c1cc(C(C)(C)C)c(NC(=O)c2c[nH]c3ccccc3c2=O)cc1O
Key: 669
